procedure.text: qHTS assay to test for compound auto fluorescence at 460 nm (blue) in HEK293 cells (AID 720678); note: % is set by controls: 0 for no effect and ±100 for the full control effect
stated.conditions: blue autofluorescence 405/460 nm; series mostly up to 91.3 µM
Excerpt: National Center for Advancing Translational Sciences [NCATS] NIH Chemical Genomics Center [NCGC] U.S. Environmental Protection Agency [EPA] National Institutes of Environmental Health Sciences [NIEHS] National Toxicology Program [NTP] U.S. Food and Drug Administration [FDA] Compound auto fluorescence often interferes with screening of the compound library against various biological targets and signaling pathways. Some of these compounds may have fluorophoric properties. […]
Activity calls are given as the source filed them. Calls come from the whole dose curve; as a rule, active = well fitted curve in the direction sought with a large enough effect in the repeat runs; inconclusive = weak or mixed curves; inactive = flat fitted curve, though single readings scatter.
parameter.measured: fluorescence, % of triamterene

Worked cases, fluorescence, % of triamterene given:
>  <molecule>
Cc1cc2c(OCC(CNC(C)(C)C)OC(=O)c3ccccc3)cccc2[nH]1 (stereo not drawn)

>  <fluorescence, % of triamterene>
inactive

$$$$
>  <molecule>
Cc1ccc(CO)cc1

>  <fluorescence, % of triamterene>
inactive

$$$$
>  <molecule>
COC(=O)CS

>  <fluorescence, % of triamterene>
inactive

$$$$
>  <molecule>
Cc1cccc(N(C)C(=S)Oc2ccc3c(c2)CCC3)c1

>  <fluorescence, % of triamterene>
inactive

$$$$
>  <molecule>
CCCCCCNC(=O)n1cc(F)c(=O)[nH]c1=O

>  <fluorescence, % of triamterene>
inactive

$$$$

Query string: # query: fluorescence, % of triamterene of entry O=C(OCC(O)CO)c1ccccc1Nc1ccnc2cc(Cl)ccc12 (stereo not drawn)
Result string: 0.52% [at 18.6 µM] (inactive)

Query string: Next molecule: `C=C/C(C)=C/C/C=C(\C)CCC=C(C)C`
Result string: inactive

Query string: Try `CCc1ccccc1` next.
Result string: inactive

Query string: Again, but for `C(=C\c1ccccc1)/c1ccccc1`
Result string: inactive

Query string: Ok, now `C=C(C)C(=O)OCCOCCOC(=O)C(=C)C`
Result string: inactive
